- System: HL-60
- test: HL-60 differentiation potency
- Type: cell-based
- conditions: Homo sapiens
The entries below are paired with their reported pEC50.
Expect pEC50 as a plain number equal to -log10 of the molar concentration.

Some entries whose results are on file:
{"compound": "C[C@H]1[C@@H](Oc2ccc(CC(=O)N[C@H](C(=O)O)C3CC3)cc2)O[C@@H]2O[C@@]3(C)CC[C@H]4[C@H](C)CC[C@@H]1[C@@]24OO3 [Compound 301]", "pEC50": 7.20}
{"compound": "C[C@@H]1CC[C@H]2[C@@H](C)C(OCc3ccc(C(=O)O)cc3C(F)(F)F)O[C@@H]3O[C@@]4(C)CC[C@@H]1[C@]32OO4 (stereo partly drawn) [Compound 197]", "pEC50": 7.18}
{"compound": "C[C@H]1[C@@H](OCc2ccc(C(=O)NC34CC(C(=O)O)(C3)C4)cc2)O[C@@H]2O[C@@]3(C)CC[C@H]4[C@H](C)CC[C@@H]1[C@@]24OO3 [Compound 273]", "pEC50": 5.54}
{"compound": "C[C@H]1[C@@H](O[C@H]2CC[C@@H](C(=O)NC3(C(=O)O)CC3)CC2)O[C@@H]2O[C@@]3(C)CC[C@H]4[C@H](C)CC[C@@H]1[C@@]24OO3 [Compound 262]", "pEC50": 4.94}
{"compound": "C[C@H]1[C@@H](O[C@H]2C[C@@H](C(=O)N[C@H]3CC[C@@H](C(=O)O)C3)C2)O[C@@H]2O[C@@]3(C)CC[C@H]4[C@H](C)CC[C@@H]1[C@@]24OO3 [Compound 201]", "pEC50": 5.17}
{"compound": "C[C@H]1[C@@H](OC[C@H]2CCC(C(=O)O)CO2)O[C@@H]2O[C@@]3(C)CC[C@H]4[C@H](C)CC[C@@H]1[C@@]24OO3 (stereo partly drawn) [Compound 212]", "pEC50": 4.69}
{"compound": "C[C@H]1[C@@H](OCc2ccc(NC(=O)[C@H]3CC[C@@H](C(=O)O)C3)cc2)O[C@@H]2O[C@@]3(C)CC[C@H]4[C@H](C)CC[C@@H]1[C@@]24OO3 [Compound 294]", "pEC50": 7.19}
{"compound": "C[C@H]1[C@@H](Oc2ccc(C(=O)O)cc2Cl)O[C@@H]2O[C@@]3(C)CC[C@H]4[C@H](C)CC[C@@H]1[C@@]24OO3 [Compound 235]", "pEC50": 7.43}

Lookup: For the compound shown here, C[C@H]1[C@@H](Oc2ccc(CC(=O)N[C@H]3C[C@@H](C(=O)O)C3)cc2)O[C@@H]2O[C@@]3(C)CC[C@H]4[C@H](C)CC[C@@H]1[C@@]24OO3 [Compound 292] , give the reported pEC50.
Found: 7.37

Lookup: Now consider C[C@H]1[C@@H](Oc2ccc(C(=O)N[C@H](C(=O)O)C3CCC3)cc2)O[C@@H]2O[C@@]3(C)CC[C@H]4[C@H](C)CC[C@@H]1[C@@]24OO3 [Compound 251] and answer again.
Found: 7.01

Lookup: Now consider C[C@H]1[C@@H](OCC2(O)CCC(C(=O)O)CC2)O[C@@H]2O[C@@]3(C)CC[C@H]4[C@H](C)CC[C@@H]1[C@@]24OO3 (stereo partly drawn) [Compound 211] and answer again.
Found: 4.94

Lookup: Now consider C[C@H]1[C@@H](OCc2ccc(OCC(=O)O)cc2)O[C@@H]2OC3(C)CC[C@H]4[C@H](C)CC[C@@H]1[C@@]24OO3 (stereo in doubt) [Compound 274] and answer again.
Found: 6.07

Lookup: Now consider C[C@H]1[C@@H](OCc2ccc(C(=O)N[C@@H]3C[C@H](C(=O)O)C[C@H]3O)cc2)O[C@@H]2O[C@@]3(C)CC[C@H]4[C@H](C)CC[C@@H]1[C@@]24OO3 [Compound 288] and answer again.
Found: 5.25

Lookup: Now consider C[C@H]1[C@@H](Oc2cc(Cl)cc(CC(=O)O)c2)O[C@@H]2O[C@@]3(C)CC[C@H]4[C@H](C)CC[C@@H]1[C@@]24OO3 [Compound 186] and answer again.
Found: 7.20

Lookup: Now consider CO[C@]1(CO[C@H]2O[C@@H]3O[C@@]4(C)CC[C@H]5[C@H](C)CC[C@@H]([C@H]2C)[C@@]35OO4)CC[C@H](C(=O)O)CC1 [Compound 193] and answer again.
Found: 5.15

Lookup: Now consider C[C@H]1[C@@H](OC[C@H]2CC[C@@H](C(=O)N3CC[C@@H](C(=O)O)C3)CC2)O[C@@H]2O[C@@]3(C)CC[C@H]4[C@H](C)CC[C@@H]1[C@@]24OO3 [Compound 263] and answer again.
Found: 6.43

Lookup: Now consider C[C@H]1[C@H](OC2CCc3cc(C(=O)O)ccc32)O[C@@H]2O[C@@]3(C)CC[C@H]4[C@H](C)CC[C@@H]1[C@@]24OO3 (stereo partly drawn) [Compound 225] and answer again.
Found: 6.69

Lookup: Now consider Cc1cc(C(=O)O)cc(Cl)c1CO[C@H]1O[C@@H]2O[C@@]3(C)CC[C@H]4[C@H](C)CC[C@@H]([C@H]1C)[C@@]24OO3 [Compound 280] and answer again.
Found: 6.61

Lookup: Now consider C[C@H]1[C@@H](O[C@H]2CC[C@@H](C(=O)N[C@H](C(=O)O)C(C)(C)O)CC2)O[C@@H]2O[C@@]3(C)CC[C@H]4[C@H](C)CC[C@@H]1[C@@]24OO3 [Compound 249] and answer again.
Found: 4.70

Lookup: Now consider CO[C@]1(CO[C@H]2O[C@@H]3O[C@@]4(C)CC[C@H]5[C@H](C)CC[C@@H]([C@H]2C)[C@@]35OO4)CC[C@@H](C(=O)O)CC1 [Compound 199] and answer again.
Found: 5.19

Lookup: Now consider C[C@H]1[C@@H](Oc2ccccc2OCC(=O)O)O[C@@H]2O[C@@]3(C)CC[C@H]4[C@H](C)CC[C@@H]1[C@@]24OO3 [Compound 230] and answer again.
Found: 5.54

Lookup: Now consider C[C@H]1[C@@H](O[C@H]2CC[C@@H](C(=O)N[C@H](C(=O)O)C3CCC3)CC2)O[C@@H]2O[C@@]3(C)CC[C@H]4[C@H](C)CC[C@@H]1[C@@]24OO3 [Compound 252] and answer again.
Found: 6.62

Lookup: Now consider C[C@H]1[C@H](OCc2ccc(C(=O)O)cc2C(F)(F)F)O[C@@H]2O[C@@]3(C)CC[C@H]4[C@H](C)CC[C@@H]1[C@@]24OO3 [Compound 195] and answer again.
Found: 6.81
